B1: LINE1-full (parent)
chain: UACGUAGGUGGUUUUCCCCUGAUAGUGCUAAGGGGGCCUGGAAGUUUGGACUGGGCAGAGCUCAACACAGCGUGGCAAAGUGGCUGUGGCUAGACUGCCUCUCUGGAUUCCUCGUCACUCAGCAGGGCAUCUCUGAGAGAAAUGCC

- Variants of: B1
- protocol text: self-cleavage, relative activity (ratio to wild type); higher = more cleavage; in vitro, sequencing; the parent is a self-cleaving ribozyme
Output class 1 for self-cleavage not less than 0.2; output class 0 otherwise.

>>> print(df.to_string())
      changes  group_label
0  G86A U119C      class 0
1   C19U G34A      class 1
2   G54U C90A      class 0
3     U1A C3U      class 0

Does G4A A42U have a reported self-cleavage of at least 0.2?
class 1

Does U52G U96C have a reported self-cleavage of at least 0.2?
class 1

Does G44U A78G have a reported self-cleavage of at least 0.2?
class 1

Does U45C U108A have a reported self-cleavage of at least 0.2?
class 1

Does A24G U87C have a reported self-cleavage of at least 0.2?
class 0

Does A30G U108C have a reported self-cleavage of at least 0.2?
class 1

Does A50G A129G have a reported self-cleavage of at least 0.2?
class 1
